- target_or_system: HDAC6 human recombinant (Homo sapiens, UniProt Q9UBN7)
- Sequence (Q9UBN7 1-1215): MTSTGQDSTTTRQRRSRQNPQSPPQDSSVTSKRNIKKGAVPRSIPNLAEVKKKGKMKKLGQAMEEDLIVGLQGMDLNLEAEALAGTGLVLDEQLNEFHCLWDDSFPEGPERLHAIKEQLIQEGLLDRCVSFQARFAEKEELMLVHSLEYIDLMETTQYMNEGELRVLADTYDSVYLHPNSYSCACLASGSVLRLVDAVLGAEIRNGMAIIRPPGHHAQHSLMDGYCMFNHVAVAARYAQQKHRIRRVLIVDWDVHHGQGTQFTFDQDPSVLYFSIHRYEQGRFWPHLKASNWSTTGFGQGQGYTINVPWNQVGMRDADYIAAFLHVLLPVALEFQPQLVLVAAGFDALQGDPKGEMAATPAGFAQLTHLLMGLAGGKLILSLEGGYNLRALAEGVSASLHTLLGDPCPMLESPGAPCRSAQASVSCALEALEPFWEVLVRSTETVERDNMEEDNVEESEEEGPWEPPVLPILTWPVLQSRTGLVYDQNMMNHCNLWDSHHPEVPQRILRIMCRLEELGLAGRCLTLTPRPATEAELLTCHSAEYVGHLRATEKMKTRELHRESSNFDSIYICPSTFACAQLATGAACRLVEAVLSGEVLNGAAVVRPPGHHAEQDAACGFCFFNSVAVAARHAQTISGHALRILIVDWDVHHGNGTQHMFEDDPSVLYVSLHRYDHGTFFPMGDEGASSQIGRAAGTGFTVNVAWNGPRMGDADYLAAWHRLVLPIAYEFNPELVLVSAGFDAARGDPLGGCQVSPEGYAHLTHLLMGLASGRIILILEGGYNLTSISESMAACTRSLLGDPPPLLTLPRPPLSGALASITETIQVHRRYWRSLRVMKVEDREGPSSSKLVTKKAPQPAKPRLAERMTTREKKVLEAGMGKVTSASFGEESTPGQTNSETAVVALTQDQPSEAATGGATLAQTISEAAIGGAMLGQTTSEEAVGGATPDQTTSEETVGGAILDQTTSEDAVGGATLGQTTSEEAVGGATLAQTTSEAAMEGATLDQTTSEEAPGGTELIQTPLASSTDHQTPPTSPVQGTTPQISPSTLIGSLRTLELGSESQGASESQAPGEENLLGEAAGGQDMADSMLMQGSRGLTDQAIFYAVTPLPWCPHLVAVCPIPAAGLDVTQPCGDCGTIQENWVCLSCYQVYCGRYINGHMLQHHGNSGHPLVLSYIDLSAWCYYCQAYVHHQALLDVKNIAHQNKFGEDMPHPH
- experiment_summary: HDAC enzyme activity inhibition (in vitro), fluorimetric HDAC6 assay
- assay_setup: samples at 0.1, 1, 10, 100 and 1000 nM, 37° C. 60 minutes, fluorescence Ex 390, Em 460
// NB: equality with 300 nM counts as 0; only IC50 strictly below is 1

{"compound": "O=c1cc(-c2nnc(C(F)F)o2)ccn1Cc1ccc2ccccc2c1", "category_label": 1}
{"compound": "COc1ccc(C(=O)Cn2ccc(-c3nnc(C(F)F)o3)cc2=O)c(OC)c1", "category_label": 1}
{"compound": "O=C(Cn1ccc(-c2nnc(C(F)F)o2)cc1=O)c1cccs1", "category_label": 1}
{"compound": "O=c1cc(-c2nnc(C(F)(F)F)o2)ccn1Cc1cc(F)c(F)cc1F", "category_label": 0}
{"compound": "O=c1cc(-c2nnc(C(F)F)o2)ccn1Cc1cccc(F)c1", "category_label": 1}
{"compound": "O=C(OCCn1ccc(-c2nnc(C(F)F)o2)cc1=O)c1ccccc1", "category_label": 0}
{"compound": "O=C(C(Cn1ccc(-c2nnc(C(F)F)o2)cc1=O)c1ccccc1)N1CCOCC1 (stereo not drawn)", "category_label": 1}
{"compound": "O=C(Cn1ccc(-c2nnc(C(F)(F)F)o2)cc1=O)c1ccc(Cl)s1", "category_label": 0}
{"compound": "CCn1ccc(-c2nnc(C(F)F)o2)cc1=O", "category_label": 1}

Values were extracted from patent US11958844B2.
